src = patent US20260306640A1

# TESTED SYSTEM: KAT2B (Homo sapiens, UniProt Q92831)
# Sequence (Q92831 whole entry): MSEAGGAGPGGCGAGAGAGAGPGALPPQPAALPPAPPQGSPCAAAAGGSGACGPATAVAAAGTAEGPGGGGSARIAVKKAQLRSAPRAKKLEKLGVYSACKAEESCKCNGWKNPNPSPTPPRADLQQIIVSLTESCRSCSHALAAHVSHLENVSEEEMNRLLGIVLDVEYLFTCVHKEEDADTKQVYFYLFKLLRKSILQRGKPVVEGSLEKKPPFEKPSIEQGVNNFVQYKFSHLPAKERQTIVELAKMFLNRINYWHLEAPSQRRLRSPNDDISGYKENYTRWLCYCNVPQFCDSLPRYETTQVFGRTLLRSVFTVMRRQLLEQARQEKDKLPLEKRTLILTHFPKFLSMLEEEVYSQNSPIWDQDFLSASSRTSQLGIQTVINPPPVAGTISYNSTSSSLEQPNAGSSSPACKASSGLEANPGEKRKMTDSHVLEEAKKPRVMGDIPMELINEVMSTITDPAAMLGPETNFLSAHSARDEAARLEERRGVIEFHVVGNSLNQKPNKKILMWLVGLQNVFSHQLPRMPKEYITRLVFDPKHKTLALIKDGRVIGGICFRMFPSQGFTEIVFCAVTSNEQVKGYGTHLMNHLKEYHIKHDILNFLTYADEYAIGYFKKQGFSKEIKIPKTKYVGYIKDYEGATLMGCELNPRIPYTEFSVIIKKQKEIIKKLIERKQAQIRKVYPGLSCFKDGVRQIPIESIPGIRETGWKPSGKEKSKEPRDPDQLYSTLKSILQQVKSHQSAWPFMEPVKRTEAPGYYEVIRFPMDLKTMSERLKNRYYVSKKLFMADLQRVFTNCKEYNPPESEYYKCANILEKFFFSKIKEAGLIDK
# METHOD SUMMARY: KAT2B degradation, Western Blot (Jess), NCI-H1048 cells
# Type: cell-based
# Parameters: degrader, Western blot (Jess)
# SETTINGS: NCI-H1048 cells, KAT2B, 24 h, Western Blot, vs DMSO; read-out: KAT2B NCI-H1048 DC50
# Text: MOLM-13 cells or NCI-H1048 cells were used for Western Blot analysis of KAT2A degradation. KAT2B degradation can be measured in a similar manner with NCI-H1048 cells. […] MOLM-13 cells or NCI-H1048 cells were washed with PBS, then lysed with RIPA buffer containing 1×protease and phosphatase inhibitors (SantaCruz Biotechnologies Cat #sc-24948A). […] Protein was quantified via Bradford assay. […] Signal was detected by chemiluminescence. […]
TEST READOUT: DC50

INSERT INTO assay_data (compound, test_readout, observed) VALUES
  ('CN1C[C@H](Nc2cnn(C)c(=O)c2Cl)C[C@H](c2ccc(CN3CCN(c4ccc5c(C6CCC(=O)NC6=O)cncc5c4)CC3)cc2)C1 (some centres unmarked)', 'DC50', '< 1 nM');

# map each compound to its DC50
1. CN1C[C@H](Nc2cnn(C)c(=O)c2Br)C[C@H](c2ccc(C(=O)N3CCC4(CC3)CCN(c3ccc(C(=O)NC5CCC(=O)NC5=O)nc3)CC4)cc2)C1 (some centres unmarked)
2. Cc1cc(N2CCC3(CCN(C(=O)c4ccc([C@H]5C[C@@H](Nc6cnn(C)c(=O)c6Br)CN(C)C5)cc4)CC3)CC2)cc(F)c1C1CCC(=O)NC1=O (some centres unmarked)

A.
1. < 1 nM
2. < 1 nM

# map each compound to its DC50
1. CN1C[C@H](Nc2cnn(C)c(=O)c2Cl)C[C@H](c2ccc(CN3C4CC3CN(c3cccc(C5CCC(=O)NC5=O)c3)C4)cc2)C1 (some centres unmarked) [Compound 369]
2. CN1C[C@H](Nc2cnn(C)c(=O)c2Br)C[C@H](c2ccc(C(=O)N3CCC4(CC3)CCN(c3ncc(C5CCC(=O)NC5=O)cn3)CC4)cc2)C1 (some centres unmarked)

A.
1. > 30 nM
2. < 1 nM
